I'd appreciate it if you could supply IC50 values for the items below.
molecular target: β-lactamase TEM1 (Escherichia coli, UniProt P62593); construct: The β-lactamases are isolated from bacterial strains which are resistant to penicillins and cephalosporins; endogenous in cells; host or cells: E. coli 250HT21 (natural producer; French-press lysate, 100,000 g supernatant); test: Inhibition of isolated β-lactamase Tem-1 (Nitrocefin hydrolysis); type: biochemical, E.coli 250HT21; conditions: 100 μM Nitrocefin, 50 mM sodium phosphate buffer pH7.0, 37° C.
Sequence (P62593 24-286 limits assumed): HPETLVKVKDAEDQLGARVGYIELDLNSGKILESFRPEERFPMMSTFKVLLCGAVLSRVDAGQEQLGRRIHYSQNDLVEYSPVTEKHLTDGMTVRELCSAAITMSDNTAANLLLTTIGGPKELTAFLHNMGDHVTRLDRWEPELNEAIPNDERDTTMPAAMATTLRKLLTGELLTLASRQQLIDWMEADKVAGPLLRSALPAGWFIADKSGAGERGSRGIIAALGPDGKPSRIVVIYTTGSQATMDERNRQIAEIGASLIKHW
Give bare numbers, in nM.

Can you give me IC50 for all of these, one by one?
1. O=C(NCCc1ccncc1)[C@H]1CC[C@@H]2CN1C(=O)N2OS(=O)(=O)[O-].[Na+] (relative stereo)
2. NC(=O)COC(=O)C1CCC2CN1C(=O)N2OS(=O)(=O)O (centres unmarked)
3. O=C(NCc1ccccn1)[C@H]1CC[C@@H]2CN1C(=O)N2OS(=O)(=O)[O-].[Na+] (relative stereo)
4. O=C(C[C@@H]1CCN2C[C@@H]1OC2=O)OC(c1ccccc1)c1ccccc1 (relative stereo)
5. COC(=O)C[C@@H]1CCN2C[C@H]1OC2=O (relative stereo)
6. O=C1N2CC=CC(C2)N1OS(=O)(=O)O (centres unmarked)
7. O=C(O)CC[C@@H]1CCN2C[C@H]1OC2=O (relative stereo)

Response:
1: 29; 2: 15; 3: 53; 4: 462; 5: 2010; 6: 15; 7: 700

Request: If you can, please state the reported IC50 value of C=CCOC(=O)N1C(=O)N2CC1CCC2C(=O)OCc1ccc([N+](=O)[O-])cc1 (centres unmarked) .
Response: 5700

###

tested on: E. cloacae 293HT6 (Class C); assay: MIC, micro-dilution in liquid medium, β-lactamine with product at 5 mg/l; assay type: cell-based; settings: compound at 5 mg/l; Trial 9, 293HT6 Class; 24 hours at 37° C.
Recorded Endpoint: MIC of Piperacillin in combination with the compound

Guide cases for MIC of Piperacillin in combination with the compound, answers given:
NC(=O)Nc1cccc(NC(=O)[C@H]2CC[C@@H]3CN2C(=O)N3OS(=O)(=O)[O-])c1.[Na+] (relative stereo) : >40 µg/mL
O=C(NCc1cccnc1)C1CCC2CN1C(=O)N2OS(=O)(=O)O (stereo not shown) : 2.5 µg/mL
O=C(OCCc1ccccn1)[C@H]1CC[C@@H]2CN1C(=O)N2OS(=O)(=O)[O-].[Na+] (relative stereo) : >40 µg/mL
NC(=O)C(NC(=O)[C@H]1CC[C@@H]2CN1C(=O)N2OS(=O)(=O)[O-])c1ccccc1.[Na+] (relative stereo) : >40 µg/mL
O=C(NCc1ccccc1)[C@H]1CC[C@@H]2CN1C(=O)N2OS(=O)(=O)[O-].[Na+] (relative stereo) : 10 µg/mL

Please give MIC of Piperacillin in combination with the compound, item by item, for the list that follows.
1. NC(=O)C(Cc1ccccc1)NC(=O)C1CCC2CN1C(=O)N2OS(=O)(=O)O (stereo not shown)
2. O=C(NCCc1ccncc1)[C@H]1CC[C@@H]2CN1C(=O)N2OS(=O)(=O)[O-].[Na+] (relative stereo)

Response:
1. >40 µg/mL
2. 40 µg/mL

###

tested on: P. aeruginosa 391HT7 (PSE); assay: MIC, micro-dilution in liquid medium, β-lactamine with product at 5 mg/l; format: cell-based; conditions: compound at 5 mg/l; Trial 11, 391HT7 P. aeruginosa PSE; 24 hours at 37° C.
Provide the reported MIC of Cefotaxime in combination with the compound of each item.

O=C(NCCc1cccnc1)[C@H]1CC[C@@H]2CN1C(=O)N2OS(=O)(=O)[O-].[Na+] (relative stereo) : 40 µg/mL
NC(=O)COC(=O)C1CCC2CN1C(=O)N2OS(=O)(=O)O (stereo not shown) : 40 µg/mL

Record MIC of Cefotaxime in combination with the compound per entry; entries follow.
1. CN(C)c1cccc(NC(=O)[C@H]2CC[C@@H]3CN2C(=O)N3OS(=O)(=O)[O-])c1.[Na+] (relative stereo)
2. O=C(NCCc1ccccn1)[C@H]1CC[C@@H]2CN1C(=O)N2OS(=O)(=O)[O-].[Na+] (relative stereo)
3. O=C(NCCc1ccncc1)[C@H]1CC[C@@H]2CN1C(=O)N2OS(=O)(=O)[O-].[Na+] (relative stereo)
4. O=C(NCc1ccncc1)[C@H]1CC[C@@H]2CN1C(=O)N2OS(=O)(=O)[O-].[Na+] (relative stereo)
5. O=C(NCc1cccnc1)C1CCC2CN1C(=O)N2OS(=O)(=O)O (stereo not shown)

Response:
[">40 µg/mL", "40 µg/mL", "20 µg/mL", "20 µg/mL", "20 µg/mL"]

Please give MIC of Cefotaxime in combination with the compound, item by item, for the list that follows.
1. O=C(NCc1ccccc1)[C@H]1CC[C@@H]2CN1C(=O)N2OS(=O)(=O)[O-].[Na+] (relative stereo)
2. CN(C)c1ccc(NC(=O)[C@H]2CC[C@@H]3CN2C(=O)N3OS(=O)(=O)[O-])cc1.[Na+] (relative stereo)
3. NC(=O)[C@@H]1CC[C@@H]2CN1C(=O)N2OS(=O)(=O)O (relative stereo)

Response:
1. 20 µg/mL
2. >40 µg/mL
3. 20 µg/mL

Hi, could you look up MIC of Cefotaxime in combination with the compound for each item in my list?
1. NC(=O)c1cccc(NC(=O)[C@H]2CC[C@@H]3CN2C(=O)N3OS(=O)(=O)[O-])c1.[Na+] (relative stereo)
2. O=C(NCc1ccccn1)[C@H]1CC[C@@H]2CN1C(=O)N2OS(=O)(=O)[O-].[Na+] (relative stereo)
3. NC(=O)C(Cc1ccccc1)NC(=O)C1CCC2CN1C(=O)N2OS(=O)(=O)O (stereo not shown)

Response:
1. 20 µg/mL
2. 20 µg/mL
3. >40 µg/mL
